Measured On: RSK3 (Homo sapiens, UniProt Q15349)
Assay Procedure: KINOMEscan competition binding assay
Design: RSK3 (Kinase Domain 1-N-terminal): Average Kd (nM): 5200; RSK3 (Kinase Domain 2-C-terminal): Average Kd (nM): 5800; purchased KINOMEscan screening platform (San Diego, CA), contract assay
Condition Summary: C-terminal kinase domain; duplicate; top concentration 100 µM; read-out: Average Kd, RSK3 (Kinase Domain 2-C-terminal)

Compound: O=c1c(O)c(-c2ccc(O)c(O)c2)oc2cc(O)ccc12 [Fisetin, fisetin]
Kd [µM]: 5.8

---

Measured On: RSK3 (Homo sapiens, UniProt Q15349)
Assay Procedure: KINOMEscan competition binding assay
Parameters: RSK3 (Kinase Domain 1-N-terminal): Average Kd (nM): 5200; RSK3 (Kinase Domain 2-C-terminal): Average Kd (nM): 5800; purchased KINOMEscan screening platform (San Diego, CA), contract assay
Condition Summary: N-terminal kinase domain; duplicate; top concentration 100 µM; read-out: Average Kd, RSK3 (Kinase Domain 1-N-terminal)
Procedure: The KINOMEscan screening platform (San Diego, CA) was employed to quantitatively measure interactions between fisetin and RSK isoforms. Binding constants (Kds) were calculated by measuring the amount of kinase captured on solid support as a function of the test compound concentration, using the Hill equation. The Hill Slope was set to −1. Curves were fitted using a non-linear least square fit with the Levenberg-Marquardt algorithm.
Experimental Endpoint: Kd (µM)

Smiles Text: O=c1c(O)c(-c2ccc(O)c(O)c2)oc2cc(O)ccc12
Unit String: µM
Recorded Number: 5.2

---

Measured On: RSK2 (Homo sapiens, UniProt P51812)
Sequence (P51812 422-679): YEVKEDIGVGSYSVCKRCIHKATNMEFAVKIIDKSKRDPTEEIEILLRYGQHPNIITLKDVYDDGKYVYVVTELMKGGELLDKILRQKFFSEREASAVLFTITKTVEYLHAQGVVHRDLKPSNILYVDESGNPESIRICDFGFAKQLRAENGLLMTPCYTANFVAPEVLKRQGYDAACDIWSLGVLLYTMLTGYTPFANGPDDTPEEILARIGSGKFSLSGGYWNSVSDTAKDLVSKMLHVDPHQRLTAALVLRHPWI
Assay Procedure: KINOMEscan competition binding assay
Parameters: purchased KINOMEscan screening platform (San Diego, CA), contract assay
Condition Summary: C-terminal kinase domain; duplicate; top concentration 100 µM; read-out: Average Kd, RSK2 (Kinase Domain 2-C-terminal)
Experimental Endpoint: Kd

Smiles Text: O=c1c(O)c(-c2ccc(O)c(O)c2)oc2cc(O)ccc12
Result: 8.4 µM

---

Measured On: ERK1 (Homo sapiens, UniProt P27361)
Sequence (P27361 whole entry): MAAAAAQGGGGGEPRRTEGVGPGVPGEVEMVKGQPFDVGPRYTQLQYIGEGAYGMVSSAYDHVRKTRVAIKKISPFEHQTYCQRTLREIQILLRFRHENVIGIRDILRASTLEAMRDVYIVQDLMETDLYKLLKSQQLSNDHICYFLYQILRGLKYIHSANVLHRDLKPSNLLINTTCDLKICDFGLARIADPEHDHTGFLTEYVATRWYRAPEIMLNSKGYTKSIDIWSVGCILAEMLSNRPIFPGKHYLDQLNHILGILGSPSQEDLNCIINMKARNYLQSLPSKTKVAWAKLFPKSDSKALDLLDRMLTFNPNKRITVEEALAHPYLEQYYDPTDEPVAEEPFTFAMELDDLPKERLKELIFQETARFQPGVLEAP
pIC50: −log10 of the molar value.
Experimental Endpoint: pIC50

Smiles Text: O=c1c(O)c(-c2ccc(O)c(O)c2)oc2cc(O)ccc12
Recorded Number: 5.07

---

Measured On: RSK1 (Homo sapiens, UniProt Q15418)
Assay Procedure: KINOMEscan competition binding assay
Set-up: RSK1 (Kinase Domain 1-N-terminal): Average Kd (nM): 8100; RSK1 (Kinase Domain 2-C-terminal): Average Kd (nM): 2500; purchased KINOMEscan screening platform (San Diego, CA), contract assay
Condition Summary: C-terminal kinase domain; duplicate; top concentration 100 µM; read-out: Average Kd, RSK1 (Kinase Domain 2-C-terminal)
Sequence (Q15418 418-675): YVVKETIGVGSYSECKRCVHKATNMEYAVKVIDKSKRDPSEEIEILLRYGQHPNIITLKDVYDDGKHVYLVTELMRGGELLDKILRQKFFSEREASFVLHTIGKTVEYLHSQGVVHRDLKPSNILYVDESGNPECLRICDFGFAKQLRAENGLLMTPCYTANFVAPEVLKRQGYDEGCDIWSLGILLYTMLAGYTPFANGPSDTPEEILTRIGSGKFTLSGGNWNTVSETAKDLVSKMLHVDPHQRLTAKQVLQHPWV
Experimental Endpoint: Kd (nM)

Smiles Text: O=c1c(O)c(-c2ccc(O)c(O)c2)oc2cc(O)ccc12
Recorded Number: 2500

---

Measured On: RSK1 (Homo sapiens, UniProt Q15418)
Experimental Endpoint: IC50 (µM)

Compound: O=c1c(O)c(-c2ccc(O)c(O)c2)oc2cc(O)ccc12 [Fisetin, fisetin]
Recorded Number: 3.79

---

Measured On: RSK3 (Homo sapiens, UniProt Q15349)
Assay Procedure: Radiometric in vitro kinase activity assay (Reaction Biology)
Assay type: biochemical
Design: purchased Reaction Biology Corporation (Malvern, PA), contract assay
Condition Summary: 10-dose, 3-fold serial dilution from 100 μM; 30 μM ATP; read-out: IC50 (M), kinase activity inhibition RSK3
Sequence (Q15349 whole entry): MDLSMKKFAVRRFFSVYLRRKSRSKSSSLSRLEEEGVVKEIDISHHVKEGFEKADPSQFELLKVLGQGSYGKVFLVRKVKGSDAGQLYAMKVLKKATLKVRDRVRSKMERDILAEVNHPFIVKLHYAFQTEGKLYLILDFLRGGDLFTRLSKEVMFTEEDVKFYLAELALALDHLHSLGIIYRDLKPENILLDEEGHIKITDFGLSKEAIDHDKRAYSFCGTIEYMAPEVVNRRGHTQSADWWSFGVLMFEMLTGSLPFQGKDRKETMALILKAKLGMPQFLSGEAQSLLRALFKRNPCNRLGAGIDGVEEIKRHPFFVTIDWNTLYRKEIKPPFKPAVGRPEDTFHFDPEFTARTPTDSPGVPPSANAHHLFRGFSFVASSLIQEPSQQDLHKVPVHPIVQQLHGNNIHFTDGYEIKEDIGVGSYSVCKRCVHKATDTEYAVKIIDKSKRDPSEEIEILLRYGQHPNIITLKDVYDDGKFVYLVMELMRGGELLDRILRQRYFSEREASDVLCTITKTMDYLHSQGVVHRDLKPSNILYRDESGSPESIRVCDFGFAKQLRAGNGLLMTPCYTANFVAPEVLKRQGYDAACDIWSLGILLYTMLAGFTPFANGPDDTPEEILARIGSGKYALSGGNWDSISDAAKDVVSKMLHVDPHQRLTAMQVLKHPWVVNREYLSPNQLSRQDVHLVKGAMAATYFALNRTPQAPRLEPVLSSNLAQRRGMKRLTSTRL

Smiles Text: O=c1c(O)c(-c2ccc(O)c(O)c2)oc2cc(O)ccc12
Measured On: RSK3 (Homo sapiens, UniProt Q15349)
IC50, M: 8.91e-07
